Hey, just so you know, these numbers are from ChEMBL document CHEMBL1157539.

test system: Plasmodium falciparum; assay: GSK_TCMDC: Inhibition of Plasmodium falciparum Dd2 in whole red blood cells, using parasite LDH activity as an index of growth. Test compounds present at 2uM; format: functional
Readout type: Inhibition (%)
Only the number, expressed in %, is required.

Before answering, review these 4 worked examples.
compound=COc1ccc(NC(=O)Nc2cccc(-c3cccc(-c4nc5cccc(C)c5[nH]4)c3)c2)cc1 target_desc="Plasmodium falciparum" readout_type=Inhibition value_observed=43
compound=Cc1cc(C)nc(-n2[nH]c(C)c(Cc3ccc(C(C)(C)C)cc3)c2=O)n1 target_desc="Plasmodium falciparum" readout_type=Inhibition value_observed=61
compound=COc1ccc2c(c1)OC(C)(C)CC2=NOS(=O)(=O)c1ccc(C)cc1 target_desc="Plasmodium falciparum" readout_type=Inhibition value_observed=12
compound="COc1cccc(NC(=O)N2CCOC(CCN3CCC4(CCc5ccccc54)CC3)(c3ccc(Cl)c(Cl)c3)C2)c1 (stereo not drawn)" target_desc="Plasmodium falciparum" readout_type=Inhibition value_observed=72

I looked up O=C(C1CCN(c2nnnn2-c2ccccc2)CC1)N1CCc2ccccc2C1 and its Inhibition for Plasmodium falciparum was 97

I looked up CCN(CC)CCNC(=O)c1ccc(Nc2ncc([N+](=O)[O-])c(Nc3ccccc3OC)n2)cc1.Cl and its Inhibition for Plasmodium falciparum was 58

* * *

# Inhibition values compiled below
test system: Plasmodium falciparum; assay: GSK_TCMDC: Inhibition of Plasmodium falciparum 3D7 in whole red blood cells, using parasite LDH activity as an index of growth. Test compounds present at 2uM; type: functional
Only the number, expressed in %, is required.

Before answering, review these 4 worked examples.
compound="CCOC(=O)/C(=N\\OC(C(=O)OC(C)(C)C)c1ccccc1)c1csc(NC(c2ccccc2)(c2ccccc2)c2ccccc2)n1 (stereo not given)" value_observed=89
compound=O=C(Nc1cccc2ccccc12)N1CCC(NS(=O)(=O)c2cccc(C(F)(F)F)c2)CC1 value_observed=95
compound=COc1ccc(CCN(C)CCCCNC(=O)c2ccc(NC(=O)c3ccc(Cl)cc3)cc2)c(OC)c1 value_observed=87
compound="O=C(NCC1CC1)C1CCN(C(c2ccccc2)c2ccc(Cl)c(Cl)c2)CC1 (stereo not given)" value_observed=97

// sample OC(CNc1ccnc(Nc2ccccc2)n1)c1cccc(C(F)(F)F)c1 (stereo not given) , its Inhibition was 100

* * *

system: Plasmodium falciparum; assay: GSK_TCMDC: Inhibition of Plasmodium falciparum 3D7 in whole red blood cells, using parasite LDH activity as an index of growth. Test compounds present at 2uM; type: functional
Readout type: Inhibition
Answer as a quantity: numeral, then unit.

compound=CCCN(CCC)CCCN(CCCN(CCC)CCC)c1cc(C)nc(Nc2ccc(Cl)cc2)n1.Cl value_observed=100%
compound=CCCCn1c(Sc2ccc(C#N)c([N+](=O)[O-])c2)nnc1-c1cccc(Cl)c1 value_observed=96%
compound="CC(CCCC(=O)Nc1ccc(CC(C)NCCc2cccc(Cl)c2)cc1)NCCc1cccc(Cl)c1 (centres undefined)" value_observed=100%
compound=COc1cc(F)c2ncc(C#N)c(CCN3CCC(NCc4ccc5c(c4)OCCO5)CC3)c2c1.Cl value_observed=97%
compound=NC(=O)COc1c(C2CCN(CCCCNC(=O)c3ccc(-c4ccc(Cl)cc4)c(O)c3)CC2)ccc2c1CCCC2 value_observed=100%
compound=CCOc1cc(N)c2nc3ccc([N+](=O)[O-])cc3cc2c1 value_observed=100%
compound=COc1ccc(S(=O)(=O)NCCC2CCN(CCCCCNC(=O)C=Cc3ccc(Cl)c(Cl)c3)CC2)cc1 value_observed=87%
compound=Cc1cc(-c2nc3ccc(N4CCN(C)CC4)cc3[nH]2)nn1Cc1cc(Cl)ccc1OCC(C)C.Cl value_observed=99%

// sample Cc1[nH]c(C)c(-c2ccc(OCCOc3ccc(C(F)(F)F)cn3)cc2)c(=O)c1Br , its Inhibition was 97%

* * *

tested on: Plasmodium falciparum; test: GSK_TCMDC: Inhibition of Plasmodium falciparum Dd2 in whole red blood cells, using parasite LDH activity as an index of growth. Test compounds present at 2uM; type: functional
Readout type: Inhibition (%)
Only the number, expressed in %, is required.

Before answering, review these 3 worked examples.
compound=O=C(NC1CCCCC1)N(CCCn1ccnc1)Cc1csc(-c2ccc(CNCc3ccccc3)cc2)n1.O=C(O)C(F)(F)F unit_info=% value_observed=48
compound=COc1ccccc1CNC(=O)C(=O)Nc1c(-c2ccccc2)[nH]c2ccccc12 unit_info=% value_observed=91
compound=O=C(NC1CCN(Cc2ccccc2)CC1)c1ccc(-c2nc3cc(Cl)c(Cl)cc3[nH]2)s1 unit_info=% value_observed=99

// sample CCc1ccccc1N=C1c2c(cccc2[N+](=O)[O-])C(=O)C1C(C)=O (centres undefined) , its Inhibition was 96

// sample CN1CCN(Cc2nc(-c3ccc4c(Nc5ccc(Oc6ccccc6)cc5)ccnc4c3)cs2)CC1 , its Inhibition was 99

// sample COc1cc(Cc2cnc(N)nc2N)cc(OCCCS(=O)(=O)O)c1OC , its Inhibition was 0

// sample NCC1CCCN1Cc1cccc(-c2cccc(-c3nc4cc(F)ccc4[nH]3)c2)c1.O=C(O)C(F)(F)F (centres undefined) , its Inhibition was 65

// sample CC(C)COc1ccc(C(O)C(CN2CCCCC2)c2ccccc2)cc1 (centres undefined) , its Inhibition was 89

* * *

tested on: HepG2; experiment: GSK_TCMDC: Percent inhibition of human HepG2 cell line. Test compounds present at 10uM.; type: functional
Readout type: Inhibition (%)
Only the number, expressed in %, is required.

Before answering, review these 5 worked examples.
compound=CCNc1cc(C(=O)N[C@@H](Cc2ccccc2)[C@H](O)CNC(C)(C)CSCC(C)C)cc(N2CCCC2=O)c1 value_observed=0
compound=CC(C)CN(Cc1c(O)ccc2[nH]c(-c3ccc(F)cc3F)nc12)CC(C)C value_observed=11
compound=COc1ccccc1CCNc1nc(C)cc(N[C@@H](Cc2ccccc2)C(=O)NCc2cccc(F)c2)n1.O=C(O)C(F)(F)F value_observed=31
compound=CN1CCN(c2cccc(-c3nnc(-c4ccc(OCC(=O)NCc5cccc(C(F)(F)F)c5)c([N+](=O)[O-])c4)o3)c2)CC1 value_observed=25
compound="CCCCCCNC(=O)C1Cc2c([nH]c3ccc(C)cc23)C2(CCN(Cc3ccccc3)CC2)N1 (stereo not drawn)" value_observed=25

// sample CC(C)COc1ccc(Cl)cc1Cc1ccc(-c2nc3ccc(Cl)cc3[nH]2)o1 , its Inhibition was 19

// sample Cc1[nH]cnc1CSCCN/C(=N\C#N)NCCCCCCCCN/C(=N/C#N)NCCSCc1nc[nH]c1C , its Inhibition was 1

// sample CCS(=O)(=O)Nc1ccc2[nH]cc(C3CCN(CCC4CCN(C(=O)/C=C/c5ccc(Cl)c(Cl)c5)CC4)CC3)c2c1 , its Inhibition was 34

* * *

test system: HepG2; test: GSK_TCMDC: Percent inhibition of human HepG2 cell line. Test compounds present at 10uM.; assay type: functional
Readout type: Inhibition (%)
Only the number, expressed in %, is required.

molecule=CS(=O)(=O)NCCCNCc1cccc(-c2ccc(-c3nc4cc(C(F)(F)F)ccc4[nH]3)s2)c1.O=C(O)C(F)(F)F target_desc=HepG2 value_observed=11
molecule=CC(=O)N(C)c1cccc(C(=O)Nc2ccc(-c3cccc(-c4nc5cc(C(F)(F)F)ccc5[nH]4)c3)cc2)c1 target_desc=HepG2 value_observed=79
molecule="CCC(C)OC(=O)C1=C(C)NC2=C(C(=O)CC(c3ccc(OC)c(OC)c3)C2)C1c1ccc(O)cc1 (centres undefined)" target_desc=HepG2 value_observed=3

Consider the record given below.
// sample Cc1cc(N[C@@H](Cc2ccccc2)C(=O)NC2CCCC2)nc(NCc2ccccc2C)n1.O=C(O)C(F)(F)F , its Inhibition was 2

* * *

system: Plasmodium falciparum; assay: GSK_TCMDC: Inhibition of Plasmodium falciparum Dd2 in whole red blood cells, using parasite LDH activity as an index of growth. Test compounds present at 2uM; format: functional
Readout type: Inhibition (%)
Only the number, expressed in %, is required.

molecule=CCCCCCCCc1nc(C)c(Br)c(O)c1Br target_desc="Plasmodium falciparum" readout_type=Inhibition value_observed=95
molecule="CCOc1ccc(NC(=O)c2ccc(NCCCN3CC(C)CC(C)C3)c([N+](=O)[O-])c2)cc1 (stereo not given)" target_desc="Plasmodium falciparum" readout_type=Inhibition value_observed=60

// sample Clc1ccc(Nc2nc3ccc(Cl)cc3nc2Nc2ccc(Cl)cc2)cc1 , its Inhibition was 99

// sample CCOC(=O)c1ccc(N2CCN(c3cc(C)ccc3C)CC2)c(NC(=O)Nc2ccc(Cl)c(Cl)c2)c1 , its Inhibition was 42

// sample COc1ccc2nccc([C@@H](O)CN3CCC(NCc4ccc5c(c4)NC(=O)C(C)S5)CC3)c2c1.O=C(O)C(=O)O (stereo not given in full) , its Inhibition was 72

* * *

tested on: HepG2; experiment: GSK_TCMDC: Percent inhibition of human HepG2 cell line. Test compounds present at 10uM.; format: functional
# Inhibition values compiled below
Only the number, expressed in %, is required.

Before answering, review these 6 worked examples.
compound=Cl.Clc1cnc2ccc3c(c2c1CCN1CCC(NCc2cc4c(cn2)OCCO4)CC1)OCCO3 target_desc=HepG2 readout_type=Inhibition value_observed=3
compound=Cc1noc(C)c1-c1cccc(CNCc2ccc(-c3ccc(-c4nc5cc(C(F)(F)F)ccc5[nH]4)s3)cc2)c1.O=C(O)C(F)(F)F target_desc=HepG2 readout_type=Inhibition value_observed=54
compound=O=[N+]([O-])c1ccccc1C=NN=c1cc[nH]c2ccccc12 target_desc=HepG2 readout_type=Inhibition value_observed=3
compound=Cc1ccc2nc(C)n(C3CCN(C(=O)Cc4ccccc4C)CC3)c2c1 target_desc=HepG2 readout_type=Inhibition value_observed=2
compound=O=C(Nc1cccc(CN2CCN(C(=O)c3cccc(Cl)c3)CC2)c1)c1ccco1.O=C(O)C(F)(F)F target_desc=HepG2 readout_type=Inhibition value_observed=7
compound=O=C(c1cccc(-c2noc(C(F)(F)F)n2)c1)N1CCN(c2nsc3ccccc23)CC1 target_desc=HepG2 readout_type=Inhibition value_observed=18

Consider the record given below.
// sample CN(C)C(CNc1ncnc2cc(Cl)ccc12)Cc1ccccc1 (stereo not drawn) , its Inhibition was 13
